- TARGET: T1, GIT1 GAP-ANK-SHD (GAS) tandem (mouse, UniProt Q68FF6 1-371)
- T1 sequence (looked up): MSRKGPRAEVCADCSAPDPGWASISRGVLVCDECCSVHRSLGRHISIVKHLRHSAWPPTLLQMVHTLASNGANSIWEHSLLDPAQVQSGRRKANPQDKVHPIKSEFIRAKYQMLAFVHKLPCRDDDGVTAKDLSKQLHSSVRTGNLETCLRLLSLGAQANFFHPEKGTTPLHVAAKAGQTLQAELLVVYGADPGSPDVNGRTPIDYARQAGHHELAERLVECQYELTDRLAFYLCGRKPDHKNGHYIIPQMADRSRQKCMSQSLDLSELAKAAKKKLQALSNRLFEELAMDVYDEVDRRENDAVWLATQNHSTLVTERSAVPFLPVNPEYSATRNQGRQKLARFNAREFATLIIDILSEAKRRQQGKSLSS
- PROTOCOL_SUMMARY: ITC
pKd: −log10 of the molar value.
OBSERVED_PROPERTY: pKd

Record summary for ALEEDAQILKVIEAYCTSAKT [β-Pix GBD peptide (aa 528-548)] : reported pKd = ~7.82

Cited source: paper doi:10.1101/2019.12.18.881771
